Measured Ratio, listed per entry for reference.
Target: Mu-type opioid receptor (Cavia porcellus)
Assay: Antagonist potency using morphine at mu-opioid receptor in electrically stimulated guinea pig ileal longitudinal muscle (GPI); IC50 ratio
Format: functional
Answer with a number only.

// worked examples, Ratio included
SMILES STR: O=[N+]([O-])c1ccccc1Cn1c2c(c3ccccc31)C[C@@]1(O)[C@H]3Cc4ccc(O)c5c4[C@@]1(CCN3CC1CC1)[C@H]2O5
TARGET UNDER TEST: Mu-type opioid receptor (Cavia porcellus)
Ratio: 2.3
--
SMILES STR: Oc1ccc2c3c1O[C@H]1c4c(c5ccccc5n4Cc4ccccc4)C[C@@]4(O)[C@@H](C2)N(CC2CC2)CC[C@]314
TARGET UNDER TEST: Mu-type opioid receptor (Cavia porcellus)
Ratio: 1.6
--
SMILES STR: Oc1ccc2c3c1O[C@H]1c4c(c5ccccc5n4Cc4c(F)c(F)c(F)c(F)c4F)C[C@@]4(O)[C@@H](C2)N(CC2CC2)CC[C@]314
TARGET UNDER TEST: Mu-type opioid receptor (Cavia porcellus)
Ratio: 1.4
--
SMILES STR: Oc1ccc2c3c1O[C@H]1c4[nH]c5ccccc5c4C[C@@]4(O)[C@@H](C2)N(CC2CC2)CC[C@]314
TARGET UNDER TEST: Mu-type opioid receptor (Cavia porcellus)
Ratio: 11.2
--
SMILES STR: O=[N+]([O-])c1ccc(Cn2c3c(c4ccccc42)C[C@@]2(O)[C@H]4Cc5ccc(O)c6c5[C@@]2(CCN4CC2CC2)[C@H]3O6)cc1
TARGET UNDER TEST: Mu-type opioid receptor (Cavia porcellus)
Ratio: 0.5
--
SMILES STR: Nc1ccc(Cn2c3c(c4ccccc42)C[C@@]2(O)[C@H]4Cc5ccc(O)c6c5[C@@]2(CCN4CC2CC2)[C@H]3O6)cc1
TARGET UNDER TEST: Mu-type opioid receptor (Cavia porcellus)
Ratio: 2.7
--
SMILES STR: Nc1cccc(Cn2c3c(c4ccccc42)C[C@@]2(O)[C@H]4Cc5ccc(O)c6c5[C@@]2(CCN4CC2CC2)[C@H]3O6)c1
TARGET UNDER TEST: Mu-type opioid receptor (Cavia porcellus)
Ratio: 1.3
--
SMILES STR: O=[N+]([O-])c1cccc(Cn2c3c(c4ccccc42)C[C@@]2(O)[C@H]4Cc5ccc(O)c6c5[C@@]2(CCN4CC2CC2)[C@H]3O6)c1
TARGET UNDER TEST: Mu-type opioid receptor (Cavia porcellus)
Ratio: 0.9

Answer with the recorded Ratio of Nc1ccccc1Cn1c2c(c3ccccc31)C[C@@]1(O)[C@H]3Cc4ccc(O)c5c4[C@@]1(CCN3CC1CC1)[C@H]2O5 only.
1

###

Molecular target: Opioid receptors; mu & delta (Homo sapiens) (UniProt P41143+P35372)
Sequence (P35372 whole entry, looked up): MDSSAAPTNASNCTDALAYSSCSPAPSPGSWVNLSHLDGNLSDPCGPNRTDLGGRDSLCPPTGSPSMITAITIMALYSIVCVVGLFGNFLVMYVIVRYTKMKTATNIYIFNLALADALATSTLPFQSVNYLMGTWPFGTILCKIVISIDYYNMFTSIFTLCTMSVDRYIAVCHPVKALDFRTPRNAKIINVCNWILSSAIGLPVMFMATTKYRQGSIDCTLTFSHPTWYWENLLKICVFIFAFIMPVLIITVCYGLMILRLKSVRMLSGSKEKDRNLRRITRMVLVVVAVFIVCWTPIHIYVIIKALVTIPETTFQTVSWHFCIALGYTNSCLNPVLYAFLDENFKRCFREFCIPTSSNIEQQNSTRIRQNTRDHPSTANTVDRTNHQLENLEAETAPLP
Sequence (P41143 whole entry, looked up): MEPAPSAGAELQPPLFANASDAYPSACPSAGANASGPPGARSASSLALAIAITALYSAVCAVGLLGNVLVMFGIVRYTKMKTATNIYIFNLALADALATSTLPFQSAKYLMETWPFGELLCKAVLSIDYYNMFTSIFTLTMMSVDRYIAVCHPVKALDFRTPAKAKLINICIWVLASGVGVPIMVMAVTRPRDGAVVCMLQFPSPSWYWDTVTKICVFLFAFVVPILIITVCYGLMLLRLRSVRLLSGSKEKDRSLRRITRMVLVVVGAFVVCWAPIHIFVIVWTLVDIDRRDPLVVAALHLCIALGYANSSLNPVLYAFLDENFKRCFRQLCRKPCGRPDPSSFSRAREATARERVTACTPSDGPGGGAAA
Assay: Selectivity ratio is the ratio between delta and mu receptor
Format: protein assay
OBSERVATION TYPE: Selectivity ratio
Answer with a number only.

// worked examples, Selectivity ratio included
SMILES STR: O=[N+]([O-])c1ccccc1Cn1c2c(c3ccccc31)C[C@@]1(O)[C@H]3Cc4ccc(O)c5c4[C@@]1(CCN3CC1CC1)[C@H]2O5
Selectivity ratio: 13
--
SMILES STR: Oc1ccc2c3c1O[C@H]1c4[nH]c5ccccc5c4C[C@@]4(O)[C@@H](C2)N(CC2CC2)CC[C@]314
Selectivity ratio: 41
--
SMILES STR: O=[N+]([O-])c1ccc(Cn2c3c(c4ccccc42)C[C@@]2(O)[C@H]4Cc5ccc(O)c6c5[C@@]2(CCN4CC2CC2)[C@H]3O6)cc1
Selectivity ratio: 38
--
SMILES STR: Oc1ccc2c3c1O[C@H]1c4c(c5ccccc5n4Cc4ccccc4)C[C@@]4(O)[C@@H](C2)N(CC2CC2)CC[C@]314
Selectivity ratio: 131
--
SMILES STR: Nc1ccc(Cn2c3c(c4ccccc42)C[C@@]2(O)[C@H]4Cc5ccc(O)c6c5[C@@]2(CCN4CC2CC2)[C@H]3O6)cc1
Selectivity ratio: 106

Answer with the recorded Selectivity ratio of O=[N+]([O-])c1cccc(Cn2c3c(c4ccccc42)C[C@@]2(O)[C@H]4Cc5ccc(O)c6c5[C@@]2(CCN4CC2CC2)[C@H]3O6)c1 only.
112

Answer with the recorded Selectivity ratio of Oc1ccc2c3c1O[C@H]1c4c(c5ccccc5n4Cc4c(F)c(F)c(F)c(F)c4F)C[C@@]4(O)[C@@H](C2)N(CC2CC2)CC[C@]314 only.
37

Answer with the recorded Selectivity ratio of Nc1ccccc1Cn1c2c(c3ccccc31)C[C@@]1(O)[C@H]3Cc4ccc(O)c5c4[C@@]1(CCN3CC1CC1)[C@H]2O5 only.
120

Answer with the recorded Selectivity ratio of Nc1cccc(Cn2c3c(c4ccccc42)C[C@@]2(O)[C@H]4Cc5ccc(O)c6c5[C@@]2(CCN4CC2CC2)[C@H]3O6)c1 only.
111
